Cited source for all entries: BindingDB's records for doi:10.7270/Q23F4N3R

Let's look at some compounds and their measured pIC50.
# Experiment notes: hexokinase 1 inhibition, dose response, selectivity assay for HKDC1 inhibitor project, biochemical (AID 504763)
pIC50: −log10 of the molar value.
Observation type: pIC50

Compound	Observation type	Value comparator	Test result
CN1c2ccc(C=O)c3c(C=O)ccc(c23)N(C)C1(C)C	pIC50	=	4.73
O=C(O)c1ccccc1-c1c2cc(I)c(=O)c(I)c-2oc2c(I)c(O)c(I)cc12	pIC50	=	4.33
O=C1C=C(N2CCCCC2)c2ccccc2C1=O	pIC50	=	5.62
COc1cc2c(cc1OC)-c1c(OC)c(OC)c(OC)c3ccnc(c13)C2=O	pIC50	=	5.00
CC(Nc1cc(O)c2cccnc2c1O)C(=O)c1ccccc1 (stereo not given)	pIC50	=	4.12
O=C1C=C(c2c(O)ccc3ccccc23)c2ccccc2C1=O	pIC50	=	5.29
Cc1ccc(-n2c3nc(=O)[nH]c(=O)c-3cc3cc([N+](=O)[O-])ccc32)cc1	pIC50	=	4.71
CC(=O)N(C1=C(Cl)C(=O)c2ccccc2C1=O)C1CCCCC1	pIC50	=	4.99
CCOc1ccc2c(c1)C(NC(C)=O)C(=O)N2CCN1CCOCC1 (stereo not given)	pIC50	<	4.10
C=c1c(NC(C)=O)c(O)c2nc3n(c2c1O)CCC=3OC(=O)COC	pIC50	=	5.67

----------
# reported IC50; entries follow
# Experiment notes: hexokinase 1 inhibition, dose response, selectivity assay for HKDC1 inhibitor project, biochemical (AID 504763)

Molecule	Value comparator	IC50 [µM]
COc1ccc(NC(=O)CSc2ccc(-c3ccco3)nn2)cc1OC [MLS-0374858.0001]	=	17.7
COc1ccc2[nH]c3c4c(ccc3c2c1)C(=O)C=CC4=O	>	80
CCc1ccc(S(=O)(=O)N=C2C=C(Sc3nnc[nH]3)C(=O)c3ccccc32)cc1	=	2.85
Oc1c(Cl)c(N=CCc2ccccc2)c(O)c2ccccc12 [MLS002608293]	=	18.5
COC(=O)C[C@]1(C(=O)OC)CN(C#N)N(c2ccc(Cl)cc2)C12c1ccccc1-c1ccccc12	>	80
O=C(O)c1ccc(S(=O)(=O)N=C2C=C(Nc3ccccc3F)C(=O)c3ccccc32)cc1	=	6.02
O=C(O)c1ccc2ncsc2c1 [SMR000372672]	>	80
CC(=O)NC1C(=O)N(CCN2CCOCC2)c2ccc(Cl)cc21 (stereo not given) [MLS001215975]	>	80
Cc1ccc(SC2=C(N(C)C)C(=O)c3ccccc3C2=O)cc1	=	19.7
COC(=O)C1CN(C#N)N(c2ccc(Cl)cc2)C12c1ccccc1-c1ccccc12 (stereo not given)	>	80
O=C1C=C(NCc2ccccc2)c2ccccc2C1=O [SMR000282064]	=	1.9
COc1ccc(S(=O)(=O)Nc2ccc(O)c3ccccc23)cc1	>	80
Nc1c(Br)cc2c3c(cccc13)-c1ccccc1-2 [MLS002694423]	=	9.59
CC(C)c1nc2oc3c(O)ncnc3c2c2c1COC(C)(C)C2 [MLS000779024]	=	5.26
CCOC(=O)C1=C(c2ccc(OC)cc2)C(=O)c2ccccc2C1=O [SMR000185036]	=	2.44
C=CCN1C=C2C(=O)C(C)(OC(=O)CCC(=O)OC)C(=O)C(Br)=C2C=C1c1ccc(OC)cc1 (stereo not given)	>	80
O=C(CSc1n[nH]c(-c2cccnc2)n1)Nc1ccc([N+](=O)[O-])cc1Br	=	5.71
CC(=O)Nc1ccc(NC2=CC(=NS(=O)(=O)c3cccs3)c3ccccc3C2=O)cc1 [SMR000313158]	=	4.2
Cc1ccc(N2C(=O)NC(=O)C(=Cc3cc(C)n(-c4sc5c(c4C#N)CCCC5)c3C)C2=O)cc1	>	80
COc1ncnc2c1oc1nc(C(C)C)c3c(c12)CC(C)(C)OC3 [MLS000084533]	=	12.5

----------
# Experiment notes: hexokinase 1 inhibition, dose response, selectivity assay for HKDC1 inhibitor project, biochemical (AID 504763)
Observation type: log10 IC50 (log10 of the value in µM)

Compound	log10 IC50
O=C(O)c1ccc(NC2=CC(=NS(=O)(=O)c3ccccc3)c3ccccc3C2=O)cc1	0.21
O=C1C=CC(=O)C(C2=C3C(=O)N(CCc4ccccc4)CC(=O)N3CCC2)=C1	0.84
Cc1cc(C)c(S(=O)(=O)Nc2cc(SCC(=O)O)c(O)c3ccccc23)cc1C	1.15
N#CC(C(=O)CCl)c1nc2c(s1)CCc1ccccc1-2 (stereo not given)	1.58
CCCc1nc2oc3c(OC)ncnc3c2c2c1COC(C)(C)C2	1.27
COC1=C(OC)C(=O)C(Sc2ccc3ccccc3c2)=CC1=O	0.85
Oc1nc2ccccc2n2c(-c3ccccc3)nnc12	1.28
Cc1nc2c(c(=O)c3ccccc3n2C)c(=O)n1-c1ccc(F)cc1	0.94
CCOC(=O)c1ccc(NC(=O)CSc2ccc(-c3ccccn3)nn2)cc1	0.33
O=C1C(Cl)=C(Oc2ccccc2)C(=O)c2ccccc21	1.00

----------
# Experiment notes: hexokinase 1 inhibition, dose response, selectivity assay for HKDC1 inhibitor project, biochemical (AID 504763)
pIC50: −log10 of the molar value. Where a SMILES comes first, the peptide text is derived from it. Bridges are numbered along the chain shown (N, C = ends). [ ]: non-standard residue; d: D form. The star is where a group is joined. X1 = CCC(C)C(N)C1=NC(C(=O)*)CS1; dOrn = NCCC[C@@H](N)C(=O)O
Returns one of TRUE or FALSE; TRUE when pIC50 is >= 5.

Molecule	Label
O=c1c2ccccc2nc(/C=C/c2cccnc2)n1CCc1ccccc1	FALSE
COc1cc(C2c3c([nH]c(=O)[nH]c3=O)Nc3ccc4ccccc4c32)cc(OC)c1OC (stereo not drawn) [MLS000663320]	FALSE
COc1cc(/C=C2\SC(c3ccc(C)cc3)=NC2=O)ccc1O [MLS000579809]	FALSE
O=C(O)[C@@H](c1ccccc1)N1Cc2ccccc2C1=O	FALSE
Cc1ccc(C)c(S(=O)(=O)Nc2cc(SCC(=O)O)c(O)c3ccccc23)c1	FALSE
N#Cc1ccc(CSc2nnc(NC(=O)c3ccc4ncsc4c3)s2)cc1 [MLS000334839]	FALSE
CCn1cc(C(=O)NCc2ccc3c(c2)OCO3)c2cc(OC)c(OC)cc2c1=O	FALSE
COC(=O)c1cc(C)nc2c1C(=O)C(=O)C=C2N1CCOCC1 [MLS001208989]	FALSE
Cc1ccc(C)c(-n2nnnc2Sc2nnnn2-c2ccccc2)c1	FALSE
CCC(C)C(N)C1=NC(C(=O)N[C@@H](CC(C)C)C(=O)N[C@H](CCC(=O)O)C(=O)N[C@H](C(=O)N[C@H]2CCCCNC(=O)[C@H](CC(N)=O)NC(=O)[C@@H](CC(=O)O)NC(=O)[C@H](Cc3c[nH]cn3)NC(=O)[C@@H](Cc3ccccc3)NC(=O)[C@H]([C@@H](C)CC)NC(=O)[C@@H](CCCN)NC2=O)[C@@H](C)CC)CS1 (stereo partly drawn) [MLS002207255] (X1-L[dE]IK[dOrn]I[dF]H[dD]N; lactam 4-C)	FALSE
CC(C)c1nc2oc3c(NCCO)ncnc3c2c2c1COC(C)(C)C2 [SMR000439744]	TRUE
Cc1ccccc1NC1=CC(=NS(=O)(=O)c2ccc(C(=O)O)cc2)c2ccccc2C1=O	TRUE
Cc1ccc(/N=C/C2=CC(Cc3ccccc3Cl)C=C([N+](=O)[O-])C2=O)c(O)c1 (stereo not drawn)	FALSE
CCc1ccc2c(c1)C(NC(C)=O)C(=O)N2CCN1CCOCC1 (stereo not drawn) [MLS001215951]	FALSE
CCc1ccc(S(=O)(=O)N=C2C=C(Nc3cccc(C(=O)O)c3)C(=O)c3ccccc32)cc1 [SMR000620248]	TRUE
O=C1C=C(N2CCOCC2)c2ccccc2C1=O [SMR000516584]	TRUE
Cc1cc(C)n2nc(SCc3nnc(SCc4ccccc4C)s3)nc2n1	TRUE
CC(=O)n1cc(N(C(=O)CCl)c2ccc([N+](=O)[O-])cc2)c2ccccc21	FALSE
Cc1ccc(S(=O)(=O)N=C2C=C(Sc3nnc[nH]3)C(=O)c3ccccc32)cc1	TRUE
CCC(c1ccccc1)C(CC)c1cc(O)c(O)c(O)c1 (stereo not drawn)	FALSE
O=c1c2ccccc2nc(/C=C/c2cccnc2)n1Cc1ccccc1 [MLS000709026]	FALSE
Oc1ccc(CN=Nc2ncc(Br)cn2)c(O)c1	FALSE
Cc1cc2cc(CCNC(=O)c3ccc(S(=O)(=O)N4CCCC4)cc3)c(O)nc2cc1C	FALSE
COc1cc(/C=C2/C(=O)NN(c3ccc(Cl)c(Cl)c3)C2=O)cc([N+](=O)[O-])c1O [SMR000554908]	FALSE
O=C(NC1=C(NC2CCS(=O)(=O)C2)C(=O)c2ccccc2C1=O)c1ccccc1 (stereo not drawn)	TRUE
CCc1ccc(S(=O)(=O)N=C2C=C(Nc3ccc(C(=O)O)cc3)C(=O)c3ccccc32)cc1	TRUE
CCOC(=O)c1ccc(NC2=CC(=O)C(=O)c3ccccc32)cc1	FALSE
CC(=O)NC1C(=O)N(CCN2CCOCC2)c2ccc(Br)cc21 (stereo not drawn) [MLS001215987]	FALSE
CCN(CC)CCCNC(=O)c1c(O)c2ccccc2n(Cc2ccccc2)c1=O	FALSE
CCC1=NN2C(=N)/C(=C\c3ccc(OCc4cc(=O)n5nc(CC)sc5n4)c(OC)c3)C(=O)N=C2S1	FALSE
Cc1cccc2c1=NC(=O)C=2NNC(=O)c1ccc(NS(=O)(=O)c2cccs2)cc1 [SMR001246714]	FALSE
